# Tested on: Kasumi-1
# Experimental protocol: CellTox Green cytotoxicity fluorescence relative to DMSO vehicle (fold of vehicle RFU); higher = more cell death (loss of membrane integrity), active = 2 or more
# Condition parameters: 1 µM; 72 h
Structures can show the parent of a compound that is named as a salt.

Compound	CellTox Green cytotoxicity fluorescence
CC1(C)CCC(c2ccc(Cl)cc2)=C(CN2CCN(c3ccc(C(=O)NS(=O)(=O)c4ccc(N[C@H](CCN5CCOCC5)CSc5ccccc5)c(S(=O)(=O)C(F)(F)F)c4)cc3)CC2)C1	2.11
Cc1cccc(CC(=O)N2CCc3c2ccc(-c2cn(C)c4ncnc(N)c24)c3F)n1	1.04
CN1CCN(Cc2ccc(Nc3ncc(Cl)c(Nc4ccccc4S(=O)(=O)N(C)C)n3)cc2)CC1	1.72
O=C(O)CSc1cc(NS(=O)(=O)c2ccc(Br)cc2)c2ccccc2c1O	1.08
C/C(=N\NC(=O)c1cccc(S(=O)(=O)N2CCOCC2)c1)c1cc(Cl)ccc1O	1.05
COc1c/c(=C2\C=c3ccccc3=N2)[nH]/c1=C\c1[nH]c(C)cc1C [Obatoclax Mesylate]	1.42
CC(C)[C@H](CO)Nc1nc(Nc2cccc(Cl)c2)c2ncn(C(C)C)c2n1	0.923
COc1ccc(CCNCc2ccc(OCc3ccc(Cl)nc3)c(OC)c2)cc1OC	0.979

The reported numbers originate from the supplement of paper PMC7595190.
